- tested_target: T1, recombinant mouse periostin (mouse, UniProt Q62009-2 24-811, limits assumed)
- T1 sequence (looked up): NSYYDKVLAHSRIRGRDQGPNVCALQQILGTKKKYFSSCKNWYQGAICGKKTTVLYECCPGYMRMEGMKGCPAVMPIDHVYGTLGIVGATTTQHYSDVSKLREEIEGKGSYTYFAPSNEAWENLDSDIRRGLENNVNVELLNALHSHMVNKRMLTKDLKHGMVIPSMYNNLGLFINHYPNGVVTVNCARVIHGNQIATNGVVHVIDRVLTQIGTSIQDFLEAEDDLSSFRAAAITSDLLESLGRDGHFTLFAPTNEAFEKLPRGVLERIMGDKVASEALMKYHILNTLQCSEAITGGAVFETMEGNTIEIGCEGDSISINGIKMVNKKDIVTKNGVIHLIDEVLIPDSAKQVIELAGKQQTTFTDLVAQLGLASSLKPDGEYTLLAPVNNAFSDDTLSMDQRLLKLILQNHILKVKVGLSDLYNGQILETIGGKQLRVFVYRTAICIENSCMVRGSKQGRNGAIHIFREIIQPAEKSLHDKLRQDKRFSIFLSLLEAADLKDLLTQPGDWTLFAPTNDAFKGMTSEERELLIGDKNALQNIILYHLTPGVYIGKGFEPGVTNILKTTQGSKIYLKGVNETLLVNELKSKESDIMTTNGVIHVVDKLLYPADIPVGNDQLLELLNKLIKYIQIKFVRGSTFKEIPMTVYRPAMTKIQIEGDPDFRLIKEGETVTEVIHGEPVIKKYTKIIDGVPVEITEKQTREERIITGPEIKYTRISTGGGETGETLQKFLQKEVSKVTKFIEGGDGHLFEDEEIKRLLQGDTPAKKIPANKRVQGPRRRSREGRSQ
- assay_details: cell-based or functional assay
The threshold is inclusive: CAA IC50 of exactly 0.02 µM counts as Condition met; values below receive Condition not met.

NB1012 (N55S_M100I) (antibody, V domains shown, Double mutant of NB0828 (IgG4PAA parent); the isotype of the variant is not restated) VH: QVQLVQSGAEVKKPGASVKVSCKASGYTFTSYGISWVRQAPGQGLEWMGWISAYSGNTNYAQKLQGRVTMTTDTSTSTAYMELRSLRSDDTAVYYCARDILVVPFDYWGQGTLVTVSS VL: QSVLTQSSSASGTPGQTVTVSCSGSSSDIGSNRVNWYQQLPGTAPKLLIYSNDQRPSGVPDRFSGSKSGTSASLAISGLQSADEADYYCAAWDDSLSTYVFGSGTKVTVL :: Condition met
NB0828 (antibody, V domains shown) VH: QVQLVQSGAEVKKPGASVKVSCKASGYTFTSYGISWVRQAPGQGLEWMGWISAYNGNTNYAQKLQGRVTMTTDTSTSTAYMELRSLRSDDTAVYYCARDMLVVPFDYWGQGTLVTVSS VL: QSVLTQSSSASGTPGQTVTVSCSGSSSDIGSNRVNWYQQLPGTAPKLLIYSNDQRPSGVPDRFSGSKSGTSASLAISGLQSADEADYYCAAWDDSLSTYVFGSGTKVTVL :: Condition met
NB1015 (N55D) (antibody, V domains shown, Variant of NB0828 (IgG4PAA parent); the isotype of the variant is not restated) VH: QVQLVQSGAEVKKPGASVKVSCKASGYTFTSYGISWVRQAPGQGLEWMGWISAYDGNTNYAQKLQGRVTMTTDTSTSTAYMELRSLRSDDTAVYYCARDMLVVPFDYWGQGTLVTVSS VL: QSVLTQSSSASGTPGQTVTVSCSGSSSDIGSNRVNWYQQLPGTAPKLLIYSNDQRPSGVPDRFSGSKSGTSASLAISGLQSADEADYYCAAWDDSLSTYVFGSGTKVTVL :: Condition met

[in] Can NB1011 (N55T) (antibody, V domains shown, Variant of NB0828 (IgG4PAA parent); the isotype of the variant is not restated) VH: QVQLVQSGAEVKKPGASVKVSCKASGYTFTSYGISWVRQAPGQGLEWMGWISAYTGNTNYAQKLQGRVTMTTDTSTSTAYMELRSLRSDDTAVYYCARDMLVVPFDYWGQGTLVTVSS VL: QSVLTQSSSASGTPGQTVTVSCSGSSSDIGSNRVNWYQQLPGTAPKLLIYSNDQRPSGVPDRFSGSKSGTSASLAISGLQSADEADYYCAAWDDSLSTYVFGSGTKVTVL be said to have CAA IC50 at or above 0.02 µM?
[out] Condition met

[in] Is CAA IC50 for NB1014 (N55T_M100V) (antibody, V domains shown, Double mutant of NB0828 (IgG4PAA parent); the isotype of the variant is not restated) VH: QVQLVQSGAEVKKPGASVKVSCKASGYTFTSYGISWVRQAPGQGLEWMGWISAYTGNTNYAQKLQGRVTMTTDTSTSTAYMELRSLRSDDTAVYYCARDVLVVPFDYWGQGTLVTVSS VL: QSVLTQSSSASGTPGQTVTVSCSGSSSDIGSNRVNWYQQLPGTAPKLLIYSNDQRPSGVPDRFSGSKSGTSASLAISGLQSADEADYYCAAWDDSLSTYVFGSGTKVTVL at or above 0.02 µM?
[out] Condition met

[in] Does the reported CAA IC50 for NB1003 (N55S) (antibody, V domains shown, Variant of NB0828 (IgG4PAA parent); the isotype of the variant is not restated) VH: QVQLVQSGAEVKKPGASVKVSCKASGYTFTSYGISWVRQAPGQGLEWMGWISAYSGNTNYAQKLQGRVTMTTDTSTSTAYMELRSLRSDDTAVYYCARDMLVVPFDYWGQGTLVTVSS VL: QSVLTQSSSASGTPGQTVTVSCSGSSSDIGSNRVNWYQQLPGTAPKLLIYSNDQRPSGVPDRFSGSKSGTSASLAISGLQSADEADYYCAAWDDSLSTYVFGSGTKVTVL fall at or above the 0.02 µM mark?
[out] Condition not met
